Where these numbers come from: ChEMBL document CHEMBL3988442

- Tested on: Plasmodium falciparum
- ASSAY_NOTES: Calibr Malaria Delayed Death Assay SOP
- Format: functional, organism-based
- Set-up: scale not given: in the data most compounds retested in dose-response had high values
- SETUP_CONDITIONS: concentration 4.99e-06 (unit not given; other assays of the set use mol/L)
In all, about 38,000 compounds went through this assay and about 1,200 (3.2%) showed an effect of 50% or more. The median lay at about -58%. Many of the other results were omitted from the sample, so strong results are more common in it than they were.
TEST_READOUT: Percent Effect (%)
Your answer is read as %, so omit the unit and give the number.

Some solved entries appear below for comparison.
{"MOLECULE": "Clc1ccccc1C1(c2ccnc(C3CCCC3)n2)CCNCC1", "READOUT_UNIT": "%", "MEASURED_RESULT": 82.68}
{"MOLECULE": "CSc1cccc(NC(=O)CCC(=O)Nc2nccs2)c1", "READOUT_UNIT": "%", "MEASURED_RESULT": -6.233}
{"MOLECULE": "OC(CN1CCN(CC2CCCCC2)CC1)c1ccccc1 (stereo not drawn)", "READOUT_UNIT": "%", "MEASURED_RESULT": 2.939}
{"MOLECULE": "O=C(C1CC1)N1CCC(c2nc(-c3ccccc3)n[nH]2)CC1", "READOUT_UNIT": "%", "MEASURED_RESULT": -99.03}
{"MOLECULE": "CNC(=O)N1CCCCC1c1nnc2n1CCCC2 (stereo not drawn)", "READOUT_UNIT": "%", "MEASURED_RESULT": -92.12}

Q. Dear colleague, I am looking for the recorded Percent Effect of the following molecule: COc1cc(C(=O)NS(=O)(=O)c2cc(Cl)sc2Cl)ccc1OC(F)F
A. -57.9

Q. Dear colleague, I am looking for the recorded Percent Effect of the following molecule: Cc1cnn(CC2CCCN2C(=O)c2n[nH]c3ccccc23)c1 (stereo not drawn)
A. -56.22

Q. Dear colleague, I am looking for the recorded Percent Effect of the following molecule: CC(C)Oc1ncccc1CNC(=O)C1CCCN(C(=O)C2CC2)C1 (stereo not drawn)
A. -154.7

----------
Reported Percent Effect values follow for various compounds
- Test system: Plasmodium falciparum
- ASSAY_NOTES: Calibr Malaria Delayed Death Assay SOP
- Type: functional, organism-based
- Set-up: scale not given: in the data most compounds retested in dose-response had high values
- SETUP_CONDITIONS: concentration 4.99e-06 (unit not given; other assays of the set use mol/L)
In all, about 38,000 compounds went through this assay and about 1,200 (3.2%) showed an effect of 50% or more. The median lay at about -58%. What follows is part of a selection rich in strong results, with near analogues and random picks from the rest.
Answer with the figure and its unit, nothing else.

Some solved entries appear below for comparison.
{"COMPOUND": "Cn1ncc2c(=O)[nH]c(CN3CCCC3c3cccs3)nc21 (stereo not given)", "MEASURED_RESULT": "-14.29%"}
{"COMPOUND": "CC1CCN(CC(O)Cn2cnc3ccc(Cl)cc3c2=O)CC1 (stereo not given)", "MEASURED_RESULT": "28.19%"}
{"COMPOUND": "CC(O)CN1CCN(Cc2cccc(C#N)c2)CC1 (stereo not given)", "MEASURED_RESULT": "12.6%"}

Q. Find Percent Effect (Plasmodium falciparum) for the entry O=C(CN1CC(c2ccccc2)CC1=O)N1CCN(c2nccs2)CC1 (stereo not given)
A. -33.46%

Q. Find Percent Effect (Plasmodium falciparum) for the entry CN(C)c1nc(N)nc(CN2CCC(c3ccccc3)CC2)n1
A. 80.66%

Q. Find Percent Effect (Plasmodium falciparum) for the entry CCn1ccnc1CNCc1ccc(C)cc1OC(C)(C)C
A. 21.04%

Q. Find Percent Effect (Plasmodium falciparum) for the entry Cc1nnc(SCc2cccc(F)c2)n1CC(N)=O
A. -112.6%

Q. Find Percent Effect (Plasmodium falciparum) for the entry Cc1noc(C)c1CN1CC2(CCN(Cc3c[nH]cn3)CC2)CC1=O
A. -101.4%

Q. Find Percent Effect (Plasmodium falciparum) for the entry CSc1ccc(OCCN2CCNC(=O)C2C)cc1 (stereo not given)
A. -33.67%

Q. Find Percent Effect (Plasmodium falciparum) for the entry CC(O)CN1CCN(Cc2cccc(C(=O)N(C)C)c2)CC1 (stereo not given)
A. -48.6%

----------
- System: Plasmodium falciparum
- ASSAY_NOTES: Calibr Malaria Delayed Death Assay SOP
- Format: functional, organism-based
- Set-up: scale not given: in the data most compounds retested in dose-response had high values
- SETUP_CONDITIONS: concentration 4.99e-06 (unit not given; other assays of the set use mol/L)
The campaign covered roughly 38,000 compounds. About 1,200 (3.2%) showed an effect of 50% or more. The median lay at about -58%. Shown is part of a subset that was picked to be rich in strong results.
Class (by Percent Effect) -- class 1: < -40%; class 2: ≥ -40% and < 50%; class 3: ≥ 50%

{"MOLECULE": "CC(C)c1nn(C)c(N(C)C)c1CNC1CCc2cc(F)ccc21.Cl (stereo unspecified)", "GROUP_LABEL": "class 2"}
{"MOLECULE": "Cc1oc(-c2cc(F)cc(F)c2)nc1CN1C[C@@H](C)NC[C@@H]1C", "GROUP_LABEL": "class 3"}
{"MOLECULE": "COc1c(CNC2CCc3cc(F)ccc32)c(C(C)C)nn1C (stereo unspecified)", "GROUP_LABEL": "class 3"}
{"MOLECULE": "CCCN(CCC)C(=O)c1cnn(C)c1C", "GROUP_LABEL": "class 1"}
{"MOLECULE": "Cc1cc(C)n(-c2cncc(NCCNS(C)(=O)=O)n2)n1", "GROUP_LABEL": "class 1"}

Q. Field: class (Percent Effect) — entry: O=C(Cn1nc(C(F)(F)F)c(Br)c1C1CC1)N1CCOCC1
A. class 2

Q. Field: class (Percent Effect) — entry: CCN(Cc1cccc2c1OCO2)C(=O)NC1CC1
A. class 2

Q. Field: class (Percent Effect) — entry: Cc1ccc(CNCc2nccn2C)c(OC(C)(C)C)c1
A. class 2

Q. Field: class (Percent Effect) — entry: CC(C)(C(=O)NCC(N)=O)c1ccccc1F
A. class 1

Q. Field: class (Percent Effect) — entry: COc1c(CNCCc2c[nH]c3cc(F)ccc23)c(C(C)C)nn1C
A. class 3

----------
- Tested on: Plasmodium falciparum
- ASSAY_NOTES: Calibr Malaria Delayed Death Assay SOP
- Assay type: functional, organism-based
- Design: scale not given: in the data most compounds retested in dose-response had high values
- SETUP_CONDITIONS: concentration 4.99e-06 (unit not given; other assays of the set use mol/L)
The campaign covered roughly 38,000 compounds. About 1,200 (3.2%) showed an effect of 50% or more. The median lay at about -58%. The sample holds strong results, similar compounds and a random draw of the others, so the mix is not that of the screen.
TEST_READOUT: Percent Effect (%)
Your answer is read as %, so omit the unit and give the number.

{"MOLECULE": "COc1ccc(CN2C[C@@H](CN(C)C)[C@@H](CO)C2)cc1OC", "TARGET_DESC": "Plasmodium falciparum", "MEASURED_RESULT": -68.69}
{"MOLECULE": "Cc1noc(C)c1C(=O)N1CCC2(CC(N(C)c3ccncn3)C2)C1 (stereo unspecified)", "TARGET_DESC": "Plasmodium falciparum", "MEASURED_RESULT": -76.24}
{"MOLECULE": "Cc1cc(-c2cccc3c2CCNC3)cnc1-n1cnnc1", "TARGET_DESC": "Plasmodium falciparum", "MEASURED_RESULT": -23.79}
{"MOLECULE": "CCn1c(C2CCN(C(=O)c3cc(CC(C)C)no3)CC2)nn(C)c1=O", "TARGET_DESC": "Plasmodium falciparum", "MEASURED_RESULT": -42.91}

Q. Dear colleague, I am looking for the recorded Percent Effect of the following molecule: CN1CCCc2c1nc1c(c2N)CCCC1.O=C(O)C(=O)O
A. 75.22

Q. Dear colleague, I am looking for the recorded Percent Effect of the following molecule: Cc1ccc(-n2cc(CN3CCOCC(CN(C)C)C3)cn2)cc1C (stereo unspecified)
A. 38.47

Q. Dear colleague, I am looking for the recorded Percent Effect of the following molecule: Cc1cc(-n2cccn2)ccc1CN1C[C@@H](CN(C)C)[C@@H](CO)C1
A. 52.18

Q. Dear colleague, I am looking for the recorded Percent Effect of the following molecule: Cc1cnc(-n2cnnc2)c(-c2cccc3c2CCNC3)c1
A. -33.7

Q. Dear colleague, I am looking for the recorded Percent Effect of the following molecule: CN1C(=O)CC(c2cnn(C)c2)C12CCN(C(=O)c1ccco1)CC2 (stereo unspecified)
A. -26.83

Q. Dear colleague, I am looking for the recorded Percent Effect of the following molecule: Cc1cnc(N2CC[C@@H]3O[C@@H](COCC(=O)N(C)C)CC[C@@H]32)nc1.O=C(O)C(F)(F)F
A. -30.4

Q. Dear colleague, I am looking for the recorded Percent Effect of the following molecule: COc1cc2c(cc1CNC(=O)C(C)n1ccnc1C(C)C)OCCO2 (stereo unspecified)
A. 8.922

Q. Dear colleague, I am looking for the recorded Percent Effect of the following molecule: COc1ccc(-n2cccn2)c(CN2CCOCC(CN(C)C)C2)c1 (stereo unspecified)
A. 78.01
